- Target Under Test: c-Kit (Homo sapiens (Human), UniProt P10721)
- Sequence (P10721 26-976): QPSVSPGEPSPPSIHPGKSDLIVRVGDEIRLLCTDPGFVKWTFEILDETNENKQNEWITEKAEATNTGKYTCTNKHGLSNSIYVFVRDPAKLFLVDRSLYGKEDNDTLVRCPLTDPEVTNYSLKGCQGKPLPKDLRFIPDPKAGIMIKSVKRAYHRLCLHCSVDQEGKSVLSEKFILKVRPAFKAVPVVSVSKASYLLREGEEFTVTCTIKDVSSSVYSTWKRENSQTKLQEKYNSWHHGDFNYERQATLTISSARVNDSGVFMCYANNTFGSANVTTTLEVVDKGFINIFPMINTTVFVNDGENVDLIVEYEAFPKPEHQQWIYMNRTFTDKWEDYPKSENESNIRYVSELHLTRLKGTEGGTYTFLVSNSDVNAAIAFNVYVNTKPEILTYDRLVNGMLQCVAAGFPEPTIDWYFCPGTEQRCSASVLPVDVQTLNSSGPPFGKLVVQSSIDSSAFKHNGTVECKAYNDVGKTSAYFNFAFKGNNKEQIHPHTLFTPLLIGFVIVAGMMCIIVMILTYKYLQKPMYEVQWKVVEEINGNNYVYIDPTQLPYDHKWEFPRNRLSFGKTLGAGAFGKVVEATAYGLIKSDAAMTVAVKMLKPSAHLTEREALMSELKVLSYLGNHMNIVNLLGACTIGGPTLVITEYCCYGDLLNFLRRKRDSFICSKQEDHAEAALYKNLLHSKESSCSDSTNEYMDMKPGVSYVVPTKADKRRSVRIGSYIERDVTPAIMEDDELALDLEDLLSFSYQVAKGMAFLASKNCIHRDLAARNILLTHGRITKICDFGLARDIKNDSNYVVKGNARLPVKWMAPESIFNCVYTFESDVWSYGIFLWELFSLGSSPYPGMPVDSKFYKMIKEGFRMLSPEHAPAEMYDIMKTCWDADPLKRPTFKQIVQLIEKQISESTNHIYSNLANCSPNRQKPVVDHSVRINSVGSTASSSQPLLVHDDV
- Assay Comment: Inhibition of c-Kit kinase activity (HTRF KinEASE-TK)
- Format: biochemical
- Measurement Conditions: biochemical, HTRF KinEASE-TK
Reported Endpoint: IC50

Recorded results for 4 compounds are shown here.
# Entry Smiles, IC50
data = [
    ("Cc1ncc(C(=O)Nc2cc(C(=O)Nc3cnc(OC(F)(F)F)cn3)c(F)cc2C)s1", "< 100 nM"),
    ("Cc1cc(F)c(C(=O)Nc2ccc(CN3CCN(C)CC3)cn2)cc1NC(=O)c1cnc(N)s1", "< 100 nM"),
    ("Cc1cc(F)c(C(=O)NCc2ccn(C(C)C)n2)cc1NC(=O)c1cnc(N)s1", "< 100 nM"),
    ("Cc1ncc(C(=O)Nc2cc(C(=O)Nc3ccc(COC(F)F)cn3)c(F)cc2C)s1", "< 100 nM"),
]

Turning now to a further compound:
# input compound: Cc1ncc(NC(=O)c2cc(NC(=O)c3cnc(N)s3)c(C)cc2F)s1 ; wanted: its IC50
< 100 nM

====

- Target Under Test: CSF1R (Homo sapiens (Human), UniProt P07333)
- Sequence (P07333 20-972): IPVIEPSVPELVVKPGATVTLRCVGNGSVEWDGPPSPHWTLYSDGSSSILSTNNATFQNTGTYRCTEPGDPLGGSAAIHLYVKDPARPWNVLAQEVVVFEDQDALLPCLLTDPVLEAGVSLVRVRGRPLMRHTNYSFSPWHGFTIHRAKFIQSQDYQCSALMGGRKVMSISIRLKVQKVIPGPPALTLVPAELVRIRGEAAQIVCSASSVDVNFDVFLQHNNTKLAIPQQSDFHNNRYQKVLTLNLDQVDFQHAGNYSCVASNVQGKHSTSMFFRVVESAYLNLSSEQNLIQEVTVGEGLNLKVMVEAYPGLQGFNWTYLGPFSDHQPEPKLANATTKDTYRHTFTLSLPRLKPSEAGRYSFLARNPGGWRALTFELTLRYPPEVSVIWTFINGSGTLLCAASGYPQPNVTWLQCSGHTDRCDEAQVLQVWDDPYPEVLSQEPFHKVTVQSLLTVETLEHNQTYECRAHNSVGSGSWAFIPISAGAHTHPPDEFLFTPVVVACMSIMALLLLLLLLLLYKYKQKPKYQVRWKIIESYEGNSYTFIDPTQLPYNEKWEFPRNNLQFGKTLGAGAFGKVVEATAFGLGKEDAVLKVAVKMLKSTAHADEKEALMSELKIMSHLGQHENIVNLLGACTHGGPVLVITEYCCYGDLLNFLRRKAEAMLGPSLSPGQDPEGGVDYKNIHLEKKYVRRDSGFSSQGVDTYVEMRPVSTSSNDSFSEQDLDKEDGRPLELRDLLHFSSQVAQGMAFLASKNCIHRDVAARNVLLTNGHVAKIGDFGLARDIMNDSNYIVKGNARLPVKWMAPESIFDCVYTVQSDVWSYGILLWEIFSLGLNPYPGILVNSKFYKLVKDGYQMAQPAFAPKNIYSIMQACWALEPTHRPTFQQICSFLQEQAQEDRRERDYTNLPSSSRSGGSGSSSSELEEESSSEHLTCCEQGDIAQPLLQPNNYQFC
- Assay Comment: Inhibition of CSF1R kinase activity (HTRF KinEASE-TK)
- Measurement Conditions: biochemical, HTRF KinEASE-TK
pIC50: −log10 of the molar value.
Reported Endpoint: pIC50

Recorded results for 5 compounds are shown here.
# Compound, pIC50
records = [
    ("Nc1ncc(C(=O)Nc2cc(C(=O)NC3CC3)c(F)cc2Cl)s1 [Example 200]", "< 6.00"),
    ("Cc1cc(F)c(C(=O)Nc2ccc(OC3CC3)cn2)cc1NC(=O)c1cnc(C(F)F)s1 [Example 59]", "< 6.00"),
    ("Cc1cc(F)c(C(=O)Nc2cccc(F)c2)cc1NC(=O)c1cnc(N)s1 [Example 232]", "6.00 to 7.00"),
    ("Cc1ncc(C(=O)Nc2cc(C(=O)Nc3ccc(OCC(F)(F)F)cn3)c(F)cc2C)s1 [Example 41]", "< 6.00"),
    ("Cc1ncc(C(=O)Nc2cc(C(=O)NCc3ccc(F)cc3F)c(F)cc2C)s1 [Example 263]", "< 6.00"),
]

# get_value(readout= pIC50, system= CSF1R (Homo sapiens (Human), UniProt P07333)) for Cc1nnc(NC(=O)c2cc(NC(=O)c3cnc(N)s3)c(C)cc2F)s1 [Example 162]
6.00 to 7.00

Repeat with Cc1cc(F)c(C(=O)Nc2ccc(CN3CCOCC3)cn2)cc1NC(=O)c1cnc(N)s1 [Example 248]
< 6.00

Repeat with Nc1ncc(C(=O)Nc2cc(C(=O)Nc3ccc(OC(F)F)cn3)c(F)cc2Cl)s1 [Example 208]
6.00 to 7.00

====

- Target Under Test: CSF1R (Homo sapiens (Human), UniProt P07333)
- Assay Comment: Inhibition of CSF1R kinase activity (HTRF KinEASE-TK)
- Measurement Conditions: biochemical, HTRF KinEASE-TK
Reported Endpoint: IC50

# Compound, Recorded Measurement
records = [
    ("Nc1ncc(C(=O)Nc2cc(C(=O)Nc3cnc(C4CC4)cn3)c(F)cc2Cl)s1 [Example 205]", "< 100 nM"),
]

# get_value(readout= IC50, system= CSF1R (Homo sapiens (Human), UniProt P07333)) for Cc1cc(F)c(C(=O)NC2CN(C(=O)C3CC3)C2)cc1NC(=O)c1cnc(N)s1 [Example 121]
> 1000 nM
